Reported IC50 values follow for various molecules
# Study target: Integrin alpha-IIb/beta-3 (Homo sapiens, UniProt P05106+P08514)
# Sequence (P05106 27-788 limits assumed): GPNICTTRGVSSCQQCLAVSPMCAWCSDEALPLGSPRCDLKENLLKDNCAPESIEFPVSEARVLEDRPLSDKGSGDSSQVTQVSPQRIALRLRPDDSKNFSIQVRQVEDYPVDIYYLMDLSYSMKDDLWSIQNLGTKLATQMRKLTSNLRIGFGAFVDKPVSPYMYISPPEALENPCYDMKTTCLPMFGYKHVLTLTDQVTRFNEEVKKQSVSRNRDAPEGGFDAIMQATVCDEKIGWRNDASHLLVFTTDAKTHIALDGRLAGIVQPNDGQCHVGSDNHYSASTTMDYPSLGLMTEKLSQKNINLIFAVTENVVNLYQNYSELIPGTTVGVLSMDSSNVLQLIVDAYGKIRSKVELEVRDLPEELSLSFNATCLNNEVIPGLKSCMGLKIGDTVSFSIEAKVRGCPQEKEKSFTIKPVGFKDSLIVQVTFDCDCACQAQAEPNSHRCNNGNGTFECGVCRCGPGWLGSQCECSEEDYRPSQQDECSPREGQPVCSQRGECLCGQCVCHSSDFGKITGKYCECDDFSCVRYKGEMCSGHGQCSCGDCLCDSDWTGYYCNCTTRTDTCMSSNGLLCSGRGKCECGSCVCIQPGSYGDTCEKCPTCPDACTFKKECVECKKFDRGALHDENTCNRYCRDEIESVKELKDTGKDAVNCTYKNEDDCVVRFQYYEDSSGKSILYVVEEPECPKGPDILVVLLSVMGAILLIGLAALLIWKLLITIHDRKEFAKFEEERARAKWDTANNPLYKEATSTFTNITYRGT
# Sequence (P08514 32-887 limits assumed): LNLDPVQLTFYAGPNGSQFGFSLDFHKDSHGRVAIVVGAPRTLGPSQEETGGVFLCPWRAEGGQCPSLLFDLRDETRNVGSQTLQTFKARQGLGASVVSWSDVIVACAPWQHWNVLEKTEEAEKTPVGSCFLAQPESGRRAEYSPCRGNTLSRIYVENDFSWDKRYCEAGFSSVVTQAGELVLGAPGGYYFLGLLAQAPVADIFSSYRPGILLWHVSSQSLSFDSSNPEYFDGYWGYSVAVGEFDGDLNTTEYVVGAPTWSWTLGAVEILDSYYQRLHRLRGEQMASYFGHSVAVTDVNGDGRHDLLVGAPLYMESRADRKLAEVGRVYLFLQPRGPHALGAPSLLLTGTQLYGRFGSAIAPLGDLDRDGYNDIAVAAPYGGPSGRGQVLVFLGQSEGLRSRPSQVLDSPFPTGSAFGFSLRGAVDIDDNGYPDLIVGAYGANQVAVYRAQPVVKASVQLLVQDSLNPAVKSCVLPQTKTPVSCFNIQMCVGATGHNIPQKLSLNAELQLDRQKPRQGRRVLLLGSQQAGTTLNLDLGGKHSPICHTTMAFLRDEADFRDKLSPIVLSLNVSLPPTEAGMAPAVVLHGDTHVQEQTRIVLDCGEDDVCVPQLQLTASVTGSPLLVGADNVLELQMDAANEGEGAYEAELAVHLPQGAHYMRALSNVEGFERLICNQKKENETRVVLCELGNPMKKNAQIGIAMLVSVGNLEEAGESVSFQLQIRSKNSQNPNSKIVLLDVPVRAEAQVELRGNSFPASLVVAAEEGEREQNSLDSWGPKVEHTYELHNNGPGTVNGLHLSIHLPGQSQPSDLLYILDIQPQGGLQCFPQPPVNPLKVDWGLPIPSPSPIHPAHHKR
# Sequence (P08514 891-1039 limits assumed): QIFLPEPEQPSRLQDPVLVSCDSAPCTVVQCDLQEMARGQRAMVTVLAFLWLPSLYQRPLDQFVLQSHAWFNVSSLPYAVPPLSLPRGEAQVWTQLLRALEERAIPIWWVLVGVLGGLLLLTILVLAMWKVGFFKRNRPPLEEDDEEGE
# Assay text: Displacement of alphaIIb-beta3 integrin from fibrinogen by ELISA

INSERT INTO assay_data (molecule, measured_endpoint, observed_value) VALUES
  ('O=C(O)CC1c2ccccc2C(=O)N(CC(=O)NCc2ccc(Nc3nc4ccccc4[nH]3)cc2)c2ccccc21 (configuration not stated)', 'IC50', '> 100 µM');

With those in mind, consider the next molecule.
**Q:** Entry O=C(O)CC1c2ccccc2C(=O)N(CC(=O)NC[C@H]2CC[C@H](Nc3nc4ccccc4[nH]3)CC2)c2ccccc21 (some centres not stated) : reported IC50 = ?
**A:** > 100 µM
